Test system: HeLa cervical cancer cells
Assay: HeLa cell viability after treatment with analog (cell count, cell viability analyzer)
Format: cell-based, human
Conditions: 10 μM, three days, relative to DMSO vehicle
MEASUREMENT TYPE: HeLa Cell viability after treatment with analog (% viability) (%)
Numeric only. Scale: %

Problem: Please look up its HeLa Cell viability after treatment with analog (% viability): Cc1nc(/C=C/C(=O)/C=C/c2coc(C)n2)co1 [Compound 26]
Solution: 65.9

Problem: Also check O=C(/C=C/c1nccs1)/C=C/c1nccs1 [Compound 24]
Solution: 19.2

Problem: Also check Cn1nccc1C=C1CCCC(=Cc2ccnn2C)C1=O [Compound 14]
Solution: 71.4

Problem: Also check O=C1C(=Cc2nccs2)CCCC1=Cc1nccs1 [Compound 15]
Solution: 9.7

Problem: Also check CCC(C)n1ccnc1/C=C/C(=O)/C=C/c1nccn1C(C)CC (stereo not shown) [Compound 21]
Solution: 17.7

Problem: Also check Cc1cc(/C=C/C(=O)/C=C/c2cc(C)on2)no1 [Compound 27]
Solution: 15.9

Problem: Also check Cn1nccc1/C=C/C(=O)/C=C/c1ccnn1C [Compound 23]
Solution: 82.6

Problem: Also check CN1CC(=Cc2ccnn2C)C(=O)C(=Cc2ccnn2C)C1 [Compound 4]
Solution: 67.4

Problem: Also check Cc1nc(C=C2CN(C)CC(=Cc3coc(C)n3)C2=O)co1 [Compound 7]
Solution: 59.5

Problem: Also check CCC(C)n1ccnc1C=C1CCCC(=Cc2nccn2C(C)CC)C1=O (stereo not shown) [Compound 11]
Solution: 100

====

System: DU-145 prostate cancer cells
Assay: In vitro cytotoxicity against DU-145 prostate cancer cells
Type: cell-based, human
Conditions: DU-145 cells
Kindly supply the reported IC50 (curcumin)/IC50 (analog) values for the records listed here.
Keep it simple and answer with nothing but the number.

Problem: Short answer please: IC50 (curcumin)/IC50 (analog), DU-145 prostate cancer cells, entry CN1CC(=Cc2cscn2)C(=O)C(=Cc2cscn2)C1
Solution: 0.7

Problem: Also check CC(C)Cn1ccnc1C=C1CCCC(=Cc2nccn2CC(C)C)C1=O
Solution: 0.8

Problem: Also check Cc1nc(C=C2CCCC(=Cc3coc(C)n3)C2=O)co1
Solution: 0.18

Problem: Also check Cc1cc(C=C2CN(C)CC(=Cc3cc(C)no3)C2=O)on1
Solution: 0.4

Problem: Also check CN1CC(=Cc2ccnn2C)C(=O)C(=Cc2ccnn2C)C1
Solution: 0.18

Problem: Also check Cc1cc(C=C2CCCC(=Cc3cc(C)no3)C2=O)on1
Solution: 0.9

Problem: Also check Cn1cc(C=C2CCCC(=Cc3cnn(C)c3)C2=O)cn1
Solution: 0.003

Problem: Also check CN1CC(=Cc2cnn(C)c2)C(=O)C(=Cc2cnn(C)c2)C1
Solution: 0.0002

Problem: Also check Cn1nccc1C=C1CCCC(=Cc2ccnn2C)C1=O
Solution: 0.41

Problem: Also check Cc1nc(/C=C/C(=O)/C=C/c2coc(C)n2)co1
Solution: 0.4

====

Test system: DU-145 prostate cancer cells
Test: In vitro cytotoxicity against DU-145 prostate cancer cells
Format: cell-based, human
Conditions: DU-145 cells, five days
pIC50: −log10 of the molar value.
# pIC50 >= 7 gives Y, anything below gives N

Problem: Does the reported pIC50 for CCC(C)n1ccnc1C=C1CN(C)CC(=Cc2nccn2C(C)CC)C1=O (stereo not shown) fall at or above the 7 mark?
Solution: Y

Problem: Also check Cc1cc(/C=C2\CCC/C(=C\c3cc(C)on3)C2=O)no1 [Compound 8]
Solution: Y

Problem: Also check O=C(/C=C/c1nccs1)/C=C/c1nccs1
Solution: Y

Problem: Also check Cc1nc(/C=C/C(=O)/C=C/c2coc(C)n2)co1
Solution: N

Problem: Also check CCC(C)n1ccnc1/C=C/C(=O)/C=C/c1nccn1C(C)CC (stereo not shown)
Solution: Y

Problem: Also check CC(C)n1ccnc1/C=C/C(=O)/C=C/c1nccn1C(C)C
Solution: Y

Data provenance is patent US9499529B2.
